Measured aptazyme ON/OFF ratio values are reported for all entries that follow.
B1: Pistol ribozyme (parent)
chain: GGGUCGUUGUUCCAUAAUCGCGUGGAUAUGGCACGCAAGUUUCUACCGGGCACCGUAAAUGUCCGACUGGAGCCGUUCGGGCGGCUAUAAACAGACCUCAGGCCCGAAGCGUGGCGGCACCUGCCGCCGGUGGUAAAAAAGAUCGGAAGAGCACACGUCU

- Variants of: B1
- assay-method-text: aptazyme ON/OFF ratio, guanine; higher = stronger switching; co-transcriptional cleavage with and without guanine
Returns: the value as a bare number; no unit string appended.

Answered cases to consult:
# variant-code, aptazyme ON/OFF ratio
data = [
    ("U10A U11A C12A C13A", 1.39),
    ("U7C U8G U10A U11C C12G", 1.18),
    ("U7G U8C G9U U10C U11G C13U", 1.38),
]

Query block: # aptazyme ON/OFF ratio lookup, item U7G U8G G9A U11A C12G C13A
Result block: 1.03

Query block: # aptazyme ON/OFF ratio lookup, item U7G G9C U10A C12U C13U
Result block: 1.07

Query block: # aptazyme ON/OFF ratio lookup, item U7G U8G G9A U11C C13A
Result block: 1.25

Query block: # aptazyme ON/OFF ratio lookup, item U7A G9C U10C U11G C12A C13U
Result block: 1.02
